Target: human Nav1.5 (Homo sapiens)
Construct: expressed in transfected cells; host or cells: CHO-K1 (T-REx System, ThermoFisher Scientific)
Test: Amplification of Nav1.5-derived voltage-dependent sodium current (Nav1.5 current), cell line stably expressing human Nav1.5, automated patch clamp
Assay type: cell-based
Conditions: 10 μmol/L compound; change of the area under the curve of Nav1.5 current (Test Result 1); read-out: Nav1.5 current amplification rate (%)
compounds and their reported activation at 10 µM
Answer format: numeric, % implied, no suffix.

{"columns": ["compound_structure", "activation at 10 µM [%]"],
 "data": [
  ["O=C(Cn1nc(N2CCC3(CCCC3)C2)cc(N2CCCC2)c1=O)Nc1ccc2ocnc2c1", 33],
  ["O=C(Cn1nc(N2CCC3(CCC3)CC2)ccc1=O)Nc1ccc2c(c1)COC2", 12],
  ["Cc1cc(N2CCC3(CCC3)C2)nn(CC(=O)N2CCc3c(N4CCN(C)CC4)cccc32)c1=O", 2],
  ["CC1CCN(c2ccc(=O)n(CC(=O)Nc3ccc4c(c3)NC(=O)CC4)n2)CC1", 4],
  ["Cc1cc(=O)n(CC(=O)Nc2ccc3ocnc3c2)nc1N1CCC2(CCC2)C1", 20]
]}

Readout activation at 10 µM for O=C(Cn1nc(N2CCC3(CCC3)C2)cc(N2CCCC2)c1=O)Nc1ccc2ocnc2c1 , test system human Nav1.5 (Homo sapiens), was 7

Readout activation at 10 µM for N#Cc1ccc(NC(=O)Cn2nc(C3=CCC(F)(F)CC3)ccc2=O)cn1 , test system human Nav1.5 (Homo sapiens), was 23

Readout activation at 10 µM for N#Cc1ccc(NC(=O)Cn2nc(N3CCC4(CCCC4)C3)ccc2=O)cn1 , test system human Nav1.5 (Homo sapiens), was 98

---

Target: human Nav1.1 (Homo sapiens)
Construct: host or cells: HEK293
Assay: Amplification of Nav1.1-derived voltage-dependent sodium current (Nav1.1 current), cell line stably expressing human Nav1.1, automated patch clamp
Assay type: cell-based
Details: compound 50 μmol/L; HEK293 stably expressing human Nav1.1
compounds and their reported Nav1.1 current amplification rate (%)
Answer format: numeric, % implied, no suffix.

{"columns": ["compound", "reading_unit", "result"],
 "data": [
  ["CC1CC=C(c2ccc(=O)n(CC(=O)N3CC=C(c4ccccn4)C3)n2)CC1 (racemic)", "%", 42],
  ["Cc1cc2nc(NC(=O)Cn3nc(C4=CCC(C)CC4)ccc3=O)ccn2n1 (racemic)", "%", 41],
  ["CC1CC=C(c2ccc(=O)n(CC(=O)Nc3cncc(CN(C)C)c3)n2)CC1 (racemic)", "%", 32],
  ["CC1CC=C(c2ccc(=O)n(CC(=O)N3CCc4nc(-c5cn[nH]c5)ccc43)n2)CC1 (racemic)", "%", 51],
  ["O=C(Cn1nc(C2=CCCC2)ccc1=O)Nc1ccn2ccnc2c1", "%", 29],
  ["CC1CC=C(c2ccc(=O)n(CC(=O)N3CC=C(c4cccnc4)C3)n2)CC1 (racemic)", "%", 126],
  ["CC1CC=C(c2ccc(=O)n(CC(=O)N3CCN(c4ccn(C)n4)CC3)n2)CC1 (stereo not shown)", "%", 36],
  ["Cc1cc2ncnn2cc1NC(=O)Cn1nc(C2=CCC(C)CC2)ccc1=O (racemic)", "%", 98]
]}

Memo: CC1CC=C(c2ccc(=O)n(CC(=O)N3CCN(C4CCOCC4)CC3)n2)CC1 (stereo not shown) , reported Nav1.1 current amplification rate (%): 18

Memo: CC1CC=C(c2ccc(=O)n(CC(=O)NC3CCN(c4ccccc4)C3)n2)CC1 (mixture of isomers) , reported Nav1.1 current amplification rate (%): 10

---

Target: human Nav1.1 (Homo sapiens)
Construct: host or cells: HEK293
Test: Amplification of Nav1.1-derived voltage-dependent sodium current (Nav1.1 current), cell line stably expressing human Nav1.1, automated patch clamp
Type: cell-based
Conditions: compound 1 μmol/L; HEK293 stably expressing human Nav1.1
compounds and their reported Nav1.1 current amplification rate (%)
Answer format: numeric, % implied, no suffix.

{"columns": ["compound", "result"],
 "data": [
  ["CC1CC=C(c2ccc(=O)n(CC(=O)Nc3ccc(C#N)nc3)n2)CC1 (racemic)", 200],
  ["CC1CC=C(c2ccc(=O)n(CC(=O)Nc3ccn4nncc4c3)n2)CC1 (racemic)", 109],
  ["O=C(Cn1nc(C2=CCCCC2)ccc1=O)N1CCc2c(N3CCOCC3)cccc21", 110],
  ["CC1CC=C(c2ccc(=O)n(CC(=O)N3CCc4c(-c5cn[nH]c5)cncc43)n2)CC1 (racemic)", 265]
]}

Next item in the queue.
Readout Nav1.1 current amplification rate (%) for CC1CC=C(c2ccc(=O)n(CC(=O)Nc3ccc4ncncc4c3)n2)CC1 (racemic) , test system human Nav1.1 (Homo sapiens), was 130

---

Target: human Nav1.5 (Homo sapiens, UniProt Q14524)
Construct: expressed in transfected cells; host or cells: CHO-K1 (T-REx System, ThermoFisher Scientific)
Sequence (Q14524 1-2015 isoform Q14524-2): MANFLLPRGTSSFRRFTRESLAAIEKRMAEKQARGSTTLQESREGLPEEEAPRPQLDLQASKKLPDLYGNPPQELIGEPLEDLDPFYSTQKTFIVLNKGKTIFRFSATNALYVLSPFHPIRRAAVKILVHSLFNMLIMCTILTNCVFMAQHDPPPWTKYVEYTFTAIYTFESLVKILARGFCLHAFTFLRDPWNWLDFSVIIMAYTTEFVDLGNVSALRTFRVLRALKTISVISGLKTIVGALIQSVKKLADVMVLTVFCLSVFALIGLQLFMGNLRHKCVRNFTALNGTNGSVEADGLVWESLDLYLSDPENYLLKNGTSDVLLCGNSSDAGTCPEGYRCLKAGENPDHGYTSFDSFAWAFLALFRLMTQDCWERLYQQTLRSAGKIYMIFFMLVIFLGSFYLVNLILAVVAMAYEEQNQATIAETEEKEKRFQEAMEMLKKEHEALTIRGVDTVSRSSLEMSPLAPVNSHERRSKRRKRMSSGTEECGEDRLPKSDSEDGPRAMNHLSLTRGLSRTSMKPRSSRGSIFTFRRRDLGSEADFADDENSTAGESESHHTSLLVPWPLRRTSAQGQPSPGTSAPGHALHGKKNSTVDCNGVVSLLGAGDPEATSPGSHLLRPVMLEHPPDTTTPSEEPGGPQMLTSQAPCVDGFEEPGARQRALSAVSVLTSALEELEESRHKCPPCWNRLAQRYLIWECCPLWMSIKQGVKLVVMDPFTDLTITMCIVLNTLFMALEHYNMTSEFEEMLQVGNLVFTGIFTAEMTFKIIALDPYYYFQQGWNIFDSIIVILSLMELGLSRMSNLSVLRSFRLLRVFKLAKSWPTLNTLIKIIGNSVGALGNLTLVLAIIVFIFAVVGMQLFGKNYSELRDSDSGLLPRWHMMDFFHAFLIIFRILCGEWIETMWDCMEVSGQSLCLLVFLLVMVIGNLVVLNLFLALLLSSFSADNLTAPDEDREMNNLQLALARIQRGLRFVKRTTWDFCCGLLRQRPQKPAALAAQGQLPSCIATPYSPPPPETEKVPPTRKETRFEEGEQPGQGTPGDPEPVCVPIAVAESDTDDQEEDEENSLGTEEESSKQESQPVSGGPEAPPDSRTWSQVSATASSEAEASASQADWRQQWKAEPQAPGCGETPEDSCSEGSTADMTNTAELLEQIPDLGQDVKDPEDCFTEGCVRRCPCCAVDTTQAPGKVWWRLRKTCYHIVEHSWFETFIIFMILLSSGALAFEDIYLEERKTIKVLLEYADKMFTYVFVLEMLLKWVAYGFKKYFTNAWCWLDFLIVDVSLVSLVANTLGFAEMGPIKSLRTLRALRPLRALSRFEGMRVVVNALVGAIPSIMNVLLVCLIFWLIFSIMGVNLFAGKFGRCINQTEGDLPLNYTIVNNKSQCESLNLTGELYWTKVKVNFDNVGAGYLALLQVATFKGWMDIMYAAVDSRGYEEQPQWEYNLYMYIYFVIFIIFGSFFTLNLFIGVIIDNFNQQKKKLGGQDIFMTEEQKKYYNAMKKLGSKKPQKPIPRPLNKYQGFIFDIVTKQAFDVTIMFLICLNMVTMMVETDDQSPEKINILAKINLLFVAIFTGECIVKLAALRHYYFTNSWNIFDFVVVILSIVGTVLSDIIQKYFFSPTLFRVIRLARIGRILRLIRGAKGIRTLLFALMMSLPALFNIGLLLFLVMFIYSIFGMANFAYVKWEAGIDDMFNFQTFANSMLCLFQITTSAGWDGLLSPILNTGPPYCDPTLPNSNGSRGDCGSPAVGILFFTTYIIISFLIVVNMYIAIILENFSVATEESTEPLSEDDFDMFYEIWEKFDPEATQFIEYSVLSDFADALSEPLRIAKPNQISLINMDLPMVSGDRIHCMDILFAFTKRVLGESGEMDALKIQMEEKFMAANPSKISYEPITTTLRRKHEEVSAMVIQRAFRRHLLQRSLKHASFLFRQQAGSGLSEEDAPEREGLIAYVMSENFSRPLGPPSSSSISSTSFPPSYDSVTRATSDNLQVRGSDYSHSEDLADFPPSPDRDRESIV
Experiment: Amplification of Nav1.5-derived voltage-dependent sodium current (Nav1.5 current), cell line stably expressing human Nav1.5, automated patch clamp
Assay type: cell-based
Settings: 10 μmol/L compound; change of the area under the curve of Nav1.5 current (Test Result 1)
Class assignment keyed on Nav1.5 current amplification rate (%), ranges band 1: < 10%; band 2: ≥ 10% and < 30%; band 3: ≥ 30%

Below, 8 compounds whose answers are already recorded.
{"columns": ["compound", "class_assignment"],
 "data": [
  ["COc1cc(C2=CCC(C)CC2)nn(CC(=O)N2CCN(c3cncc(F)c3)CC2)c1=O (racemic)", "band 3"],
  ["CC1CC=C(c2ccc(=O)n(CC(=O)N3CCC(c4ccncc4)CC3)n2)CC1 (racemic)", "band 1"],
  ["CC1CC=C(c2ccc(=O)n(CC(=O)N3CC=C(c4cccnc4)CC3)n2)CC1 (stereo not drawn)", "band 2"],
  ["CC1CC=C(c2ccc(=O)n(CC(=O)N3CC=C(c4nccc5occc45)CC3)n2)CC1 (stereo not drawn)", "band 1"],
  ["CC1CC=C(c2ccc(=O)n(CC(=O)Nc3cccc4nccn34)n2)CC1 (racemic)", "band 2"],
  ["Cc1nc2cc(NC(=O)Cn3nc(C4=CCC(C)CC4)ccc3=O)ccc2o1 (stereo not drawn)", "band 2"],
  ["COc1ccc2c(c1)CCN2C(=O)Cn1nc(C2=CCC(C)(C)CC2)ccc1=O", "band 2"],
  ["CC1CCN(c2ccc(=O)n(CC(=O)Nc3ccc4scnc4c3)n2)CC1", "band 2"]
]}

Task item: Assign a bin to Cc1cc(C2=CCC(C)(C)CC2)nn(CC(=O)Nc2ccn3ccnc3c2)c1=O
Reply: band 3

Task item: Assign a bin to COc1cc(=O)n(CC(=O)N2CCc3c(N4CCOCC4)cccc32)nc1C1=CCC(C(F)(F)F)CC1 (racemic)
Reply: band 2

Task item: Assign a bin to COc1cc(C2=CCC(C)(C)CC2)nn(CC(=O)Nc2ccn3ccnc3c2)c1=O
Reply: band 2

Task item: Assign a bin to COc1cc(C2=CCC(C)C2)nn(CC(=O)N2CCN(c3cncc(F)c3)CC2)c1=O (stereo not drawn)
Reply: band 1

Task item: Assign a bin to COc1cc(=O)n(CC(=O)N2CCc3c(N4CCOCC4)cccc32)nc1C1=CCC(C)(C)CC1
Reply: band 3

---

Molecular target: human Nav1.5 (Homo sapiens, UniProt Q14524)
Construct: expressed in transfected cells; host or cells: CHO-K1 (T-REx System, ThermoFisher Scientific)
Experiment: Amplification of Nav1.5-derived voltage-dependent sodium current (Nav1.5 current), cell line stably expressing human Nav1.5, automated patch clamp
Assay type: cell-based
Details: compound 1 μmol/L; CHO-K1 stably expressing human Nav1.5
recorded_endpoint: Nav1.5 current amplification rate (%)
Answer format: numeric, % implied, no suffix.

Worked set:
{"columns": ["compound", "Nav1.5 current amplification rate (%)"],
 "data": [
  ["CC1(C)CC=C(c2ccc(=O)n(CC(=O)N3CCc4c(N5CCOCC5)cccc43)n2)CC1", 16],
  ["CC1CC=C(c2ccc(=O)n(CC(=O)N3CCc4c(CN(C)C5COC5)cccc43)n2)CC1 (racemic)", 47]
]}

Next item in the queue.
Readout Nav1.5 current amplification rate (%) for CC1CC=C(c2ccc(=O)n(CC(=O)Nc3ccc4nccnc4c3)n2)CC1 (racemic) , test system human Nav1.5 (Homo sapiens, UniProt Q14524), was 27

---

Molecular target: human Nav1.1 (Homo sapiens, UniProt P35498)
Construct: host or cells: HEK293
Assay: Amplification of Nav1.1-derived voltage-dependent sodium current (Nav1.1 current), cell line stably expressing human Nav1.1, automated patch clamp
Assay type: cell-based
Conditions: concentration of each compound 1 μmol/L (Test Result 6); read-out: Nav1.1 current amplification rate (%)
compounds and their reported activation at 1 µM
Reply with the number and its unit after it.

Worked set:
{"columns": ["compound", "result"],
 "data": [
  ["Cc1cc(=O)n(CC(=O)Nc2ccc3oc(N(C)C)nc3c2)nc1C1=CCC(C)(C)CC1 [Example 504]", "27%"],
  ["O=C(Cn1nc(-c2cc(Cl)cs2)ccc1=O)Nc1ccn2ncnc2c1 [Example 497]", "43%"],
  ["O=C(Cn1nc(C2=CCCCC2)ccc1=O)Nc1ccn2ncnc2c1 [Example 495]", "28%"]
]}

Memo: COc1cc(=O)n(CC(=O)Nc2ccn3ncnc3c2)nc1C1=CCC(C)(C)CC1 [Example 499] , reported activation at 1 µM: 50%

Memo: COc1cc(=O)n(CC(=O)Nc2ccc3oc(N(C)C)nc3c2)nc1C1=CCC(C)(C)CC1 [Example 500] , reported activation at 1 µM: 14%

Memo: Cc1cc(=O)n(CC(=O)Nc2ccc3ncnn3c2)nc1C1=CCC(C)CC1 (stereo not drawn) [Example 501] , reported activation at 1 µM: 33%

Origin of measurements: patent US20220347175A1
